Just for reference, patent US11427563B2 is where these values come from.

Please go through the items and note down their IC50.
SYSTEM_TESTED: ROCK2 enzyme (Homo sapiens (Human), UniProt O75116)
Sequence (O75116 whole entry, species assumed): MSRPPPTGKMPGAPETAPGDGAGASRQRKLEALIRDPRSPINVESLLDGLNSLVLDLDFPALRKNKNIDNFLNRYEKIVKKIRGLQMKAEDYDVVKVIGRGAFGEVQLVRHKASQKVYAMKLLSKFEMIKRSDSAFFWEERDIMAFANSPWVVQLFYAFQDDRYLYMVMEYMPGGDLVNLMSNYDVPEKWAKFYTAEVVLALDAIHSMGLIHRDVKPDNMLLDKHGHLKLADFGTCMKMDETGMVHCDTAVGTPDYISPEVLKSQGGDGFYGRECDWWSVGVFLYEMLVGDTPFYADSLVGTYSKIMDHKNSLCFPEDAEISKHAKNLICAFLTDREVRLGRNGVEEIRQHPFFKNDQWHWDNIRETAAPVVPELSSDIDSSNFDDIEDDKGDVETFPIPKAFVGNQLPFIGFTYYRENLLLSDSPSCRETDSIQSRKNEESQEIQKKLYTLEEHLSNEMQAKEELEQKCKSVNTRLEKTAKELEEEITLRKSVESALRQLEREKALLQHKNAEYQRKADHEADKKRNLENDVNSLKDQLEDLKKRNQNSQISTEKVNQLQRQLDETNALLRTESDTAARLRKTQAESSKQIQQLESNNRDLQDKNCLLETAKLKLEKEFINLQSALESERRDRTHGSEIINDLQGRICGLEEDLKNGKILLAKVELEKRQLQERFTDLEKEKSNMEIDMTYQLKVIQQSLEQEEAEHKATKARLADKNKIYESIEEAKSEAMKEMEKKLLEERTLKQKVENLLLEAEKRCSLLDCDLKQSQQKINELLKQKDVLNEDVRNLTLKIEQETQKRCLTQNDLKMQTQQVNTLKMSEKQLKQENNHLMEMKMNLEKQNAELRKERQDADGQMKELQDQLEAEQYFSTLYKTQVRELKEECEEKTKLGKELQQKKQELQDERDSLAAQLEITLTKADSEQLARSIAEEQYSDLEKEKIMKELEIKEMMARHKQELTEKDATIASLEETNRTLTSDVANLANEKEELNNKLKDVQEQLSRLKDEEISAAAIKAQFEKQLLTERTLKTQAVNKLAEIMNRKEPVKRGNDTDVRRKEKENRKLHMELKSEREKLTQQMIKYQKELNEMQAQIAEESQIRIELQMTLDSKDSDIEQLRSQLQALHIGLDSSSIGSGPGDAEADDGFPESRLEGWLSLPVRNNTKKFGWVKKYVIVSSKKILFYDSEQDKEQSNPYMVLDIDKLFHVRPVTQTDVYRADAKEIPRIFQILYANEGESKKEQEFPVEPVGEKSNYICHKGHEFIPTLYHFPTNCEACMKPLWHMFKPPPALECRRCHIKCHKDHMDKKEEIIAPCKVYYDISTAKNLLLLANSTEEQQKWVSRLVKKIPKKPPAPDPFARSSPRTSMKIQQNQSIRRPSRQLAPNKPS
ASSAY_PROCEDURE: ROCK kinase inhibition assay (ROCK2)
Type: biochemical
STATED_CONDITIONS: Table 1
The reply should be a number in nM, with the unit left off.

Prompt line: // query IC50 value for entry Cc1cncc2ccc(NC(=O)[C@@H]3C[C@H]3c3ccc(S(=O)(=O)NC4CCNC4)cc3)cc12 (stereo partly shown)
Response line: 21

Prompt line: Requested read-out: IC50. Entry: O=C(Nc1ccc2cncc(Cl)c2c1)[C@@H]1CC1c1ccc(S(=O)(=O)Nc2ccc(F)cn2)cc1 (mixture of isomers) [Compound 16a]
Response line: 56

Prompt line: // query IC50 value for entry Cc1cncc2ccc(NC(=O)[C@@H]3CC3c3ccc(S(=O)(=O)Nc4ncc(F)cn4)cc3)cc12 (stereo partly shown)
Response line: 93

Prompt line: Reported IC50, molecule O=C(Nc1ccc2cncc(C(F)(F)F)c2c1)[C@@H]1CC1c1ccc(S(=O)(=O)Nc2ncccn2)cc1 (stereo partly shown) : ____
Response line: 1160

Prompt line: State the recorded IC50 for this entry: "Cc1cncc2ccc(NC(=O)[C@@H]3C[C@H]3c3ccc(S(=O)(=O)Nc4nccs4)cc3)cc12"
Response line: 12.3

Prompt line: Item CCc1cncc2ccc(NC(=O)[C@@H]3CC3c3ccc(S(=O)(=O)Nc4ccccn4)cc3)cc12 (stereo partly shown) has what recorded IC50?
Response line: 45

Prompt line: Using the record for Cc1cncc2ccc(NC(=O)[C@@H]3C[C@H]3c3ccc(S(=O)(=O)NC4CCCNC4)cc3)cc12 (stereo partly shown) , report its IC50.
Response line: 15
